Experiment: Microsomal stability assay, rat liver microsomes;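 note: rat liver microsomes (0.25 mg/mL) with about 1 µM compound plus 1 mM NADPH, pH 7.4, 37 °C for 30 min, parent left measured by LC-MS/MS against 0 min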
Conditions: rat liver microsomes
Threshold-based label: RLM under 100 µL/min/mg gives Satisfied, RLM not under 100 µL/min/mg gives Not satisfied.

compound	class.assignment
Cc1ccccc1CN1CCO[C@H](C(=O)N[C@@H](Cc2ccc(F)cc2)[C@H](O)CN[C@H]2CC3(CCC3)Oc3ncc(CC(C)(C)C)cc32)C1 [compound 697]	Not satisfied
COCC(=O)N[C@@H](Cc1ccccc1)[C@H](O)CN[C@H]1CC2(CCC2)Oc2c(-c3ccncc3)cc(CC(C)C)cc21 [compound 603]	Not satisfied
COCC(=O)N[C@@H](Cc1ccccc1)[C@H](O)CN[C@H]1CC2(CCC2)Oc2ccc(C[C@H](C)F)cc21 [compound 611]	Not satisfied
COCC(=O)N[C@@H](Cc1ccc(F)cc1)[C@H](O)CN[C@H]1CC(C)(C)Oc2ncc(CC(C)(C)C)cc21 [compound 663]	Not satisfied
COCC(=O)N[C@@H](Cc1cc(F)cc(-c2ccncc2)c1)[C@H](O)CN[C@H]1CC2(CCC2)Oc2ncc(CC(C)(C)C)cc21 [compound 613]	Not satisfied
COCC(=O)N[C@@H](Cc1ccc(F)cc1)[C@H](O)CN[C@H]1CC2(CCNC2)Oc2cnc(CC(C)(C)C)cc21 (stereo partly shown) [compound 696]	Satisfied
COCC(=O)N[C@@H](Cc1ccc(F)c(-c2cscn2)c1)[C@H](O)CN[C@H]1CC2(CCC2)Oc2ncc(CC(C)(C)C)cc21 [compound 683]	Satisfied
CO[C@H](C)C(=O)N[C@@H](Cc1ccc(-c2nccs2)cc1)[C@H](O)CN[C@H]1CC2(CCC2)Oc2ncc(CC(C)(C)C)cc21 [compound 735]	Satisfied
COCC(=O)N[C@@H](Cc1cc(F)cc(F)c1)[C@H](O)CN[C@H]1CC2(CCC2)Oc2c(-c3nccn3C)cc(CC(C)C)cc21 [compound 630]	Not satisfied
COCC(=O)N[C@@H](Cc1cc(F)cc(-c2nc(C)cs2)c1)[C@H](O)CN[C@H]1CC2(CCC2)Oc2ncc(CC(C)C)cc21 [compound 733]	Not satisfied
COCC(=O)N[C@@H](Cc1ccc(F)c(-c2ncc(C)s2)c1)[C@H](O)CN[C@H]1CC2(CCC2)Oc2ncc(CC(C)(C)C)cc21 [compound 729]	Not satisfied
CC(=O)N[C@@H](Cc1ccc(F)cc1)[C@H](O)CN[C@H]1CC2(CCC2)Oc2c1cc(CC(C)(C)C)nc2Nc1ccccc1 [compound 610]	Not satisfied
CO[C@H](C)C(=O)N[C@@H](Cc1cc(F)cc(-c2nccs2)c1)[C@H](O)CN[C@H]1CC2(CCC2)Oc2ncc(CC(C)(C)F)cc21 [compound 742]	Satisfied

----------
Molecular target: CYP3A4 (CYP3A) (Homo sapiens, UniProt P08684);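 note: inhibition of CYP3A-mediated 1-hydroxymidazolam formation after 10 min incubation with NADPH, quantified by HPLC MS relative to metabolite produced without test compound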
Sequence (P08684 2-503): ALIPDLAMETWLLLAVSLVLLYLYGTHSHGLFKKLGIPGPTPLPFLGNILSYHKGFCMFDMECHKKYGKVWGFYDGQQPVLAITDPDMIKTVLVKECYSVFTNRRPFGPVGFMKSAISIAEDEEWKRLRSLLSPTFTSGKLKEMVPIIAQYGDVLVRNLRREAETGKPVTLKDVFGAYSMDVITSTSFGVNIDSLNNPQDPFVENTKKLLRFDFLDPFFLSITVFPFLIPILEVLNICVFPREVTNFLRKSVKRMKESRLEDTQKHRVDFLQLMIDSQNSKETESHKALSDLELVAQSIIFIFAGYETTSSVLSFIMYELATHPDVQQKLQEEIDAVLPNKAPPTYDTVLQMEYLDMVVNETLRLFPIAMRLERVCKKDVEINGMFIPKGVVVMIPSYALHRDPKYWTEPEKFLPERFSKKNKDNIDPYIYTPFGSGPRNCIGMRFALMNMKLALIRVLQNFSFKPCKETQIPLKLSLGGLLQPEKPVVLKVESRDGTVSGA
Test: in vitro
Conditions: microsomes, pH 7.4
Recorded measurements of IC50, one per entry
observable: IC50 (µM)

given.smiles	meas.value
C#Cc1cc(F)cc(C[C@H](NC(=O)COC)[C@H](O)CN[C@H]2CC3(CCC3)Oc3ncc(CC(C)C)cc32)c1	0.15
CC(C)C(=O)N[C@@H](Cc1cc(F)cc(-c2nccs2)c1)[C@H](O)CN[C@H]1CC2(CCC2)Oc2ncc(CC(C)(C)C)cc21	0.1
COCC(=O)N[C@@H](Cc1cc(F)cc(-c2nccs2)c1)[C@H](O)CN[C@H]1CC2(CCC2)Oc2ncc(C3CC3)cc21	0.3
CO[C@H](C)C(=O)N[C@@H](Cc1ccc(F)cc1)[C@H](O)CN[C@H]1CC2(CCC2)Oc2c1cc(CC(C)(C)C)nc2-c1ccncc1	0.1
COCC(=O)N[C@@H](Cc1cccc(F)c1)[C@H](O)CN[C@H]1CC2(CCC2)Oc2c(-c3ccncc3)cc(Cl)cc21	0.2
CO[C@H](C)C(=O)N[C@@H](Cc1ccc2c(c1)OCO2)[C@H](O)CN[C@H]1CC2(CCC2)C(=O)c2ncc(CC(C)(C)C)cc21	0.5

Ref: patent US8163909B2
